System: HepG2-C8 cells
Assay: MTS cell viability assay
Assay type: cell-based, human
Conditions: 10% FBS medium (data not shown), read-out: cell viability IC50
quantity_kind: pIC50
Note on pIC50: it is the negative log10 of concentration, concentration in mol/L.

Query :: # query: pIC50 of entry OCc1c[nH]c2ccccc12 [I3C, indole-3-carbinol]
Result :: 3.52

meta.source: patent US8916604B2
